Tested on: Candida albicans
testProtocol: Antifungal activity against fluconazole/ITC-resistant Candida albicans ATCC MYA-1003 measured after 48 hrs by CLSI M27-A3 protocol based method
Assay type: functional
conditionLabel: Candida albicans, ATCC MYA-1003, 48 h; read-out: MIC
observable: MIC

Data request: Request body: readout MIC, system Candida albicans, query OC(CNC1CCCCCCC1)(Cn1cncn1)c1ccc(F)cc1F (stereo unspecified) . Return the value.
Data returned: > 85.8 µM

Data request: Request body: readout MIC, system Candida albicans, query CC(C)c1ccc(NCC(O)(Cn2cncn2)c2ccc(F)cc2F)cc1 (stereo unspecified) . Return the value.
Data returned: 84 µM

Data request: Request body: readout MIC, system Candida albicans, query CCCCCCCCNCC(O)(Cn1cncn1)c1ccc(F)cc1F (stereo unspecified) . Return the value.
Data returned: 85.4 µM

Data request: Request body: readout MIC, system Candida albicans, query CCCCCOCCCCCCNCC(O)(Cn1cncn1)c1ccc(F)cc1F (stereo unspecified) . Return the value.
Data returned: 18.4 µM

Data request: Request body: readout MIC, system Candida albicans, query CCCCCCCCCCNCC(O)(Cn1cncn1)c1ccc(F)cc1F (stereo unspecified) . Return the value.
Data returned: 19.8 µM

Data request: Request body: readout MIC, system Candida albicans, query CCCCCCCCCCCCCCCCNCC(O)(Cn1cncn1)c1ccc(F)cc1F (stereo unspecified) . Return the value.
Data returned: > 65.4 µM

* * *

testProtocol: Hemolytic activity in mouse RBC at […] ug/ml after 1 hr relative to control
Type: ADME, cell-based, Erythrocyte
conditionLabel: mouse red blood cells (erythrocytes), read-out: Activity
Give measured hemolysis at 1 h, 15.6 ug/ml for each item. Keep answers brief.
Numeric only. Scale: %

Data request: What value of measured hemolysis at 1 h, 15.6 ug/ml is listed for CCCCCCCCCCCCCCNCC(O)(Cn1cncn1)c1ccc(F)cc1F (stereo unspecified) ?
Data returned: 29

Data request: What value of measured hemolysis at 1 h, 15.6 ug/ml is listed for CCCCCCCCCCCCCCCCNCC(O)(Cn1cncn1)c1ccc(F)cc1F (stereo unspecified) ?
Data returned: 4

Data request: What value of measured hemolysis at 1 h, 15.6 ug/ml is listed for `C[C@@H](c1ncncc1F)[C@](O)(Cn1cncn1)c1ccc(F)cc1F` ?
Data returned: 3

Data request: What value of measured hemolysis at 1 h, 15.6 ug/ml is listed for CCCCCCCCNCC(O)(Cn1cncn1)c1ccc(F)cc1F (stereo unspecified) ?
Data returned: 3

Data request: What value of measured hemolysis at 1 h, 15.6 ug/ml is listed for CCCCCCCCCCCCNCC(O)(Cn1cncn1)c1ccc(F)cc1F (stereo unspecified) ?
Data returned: 86

Data request: What value of measured hemolysis at 1 h, 15.6 ug/ml is listed for CCCCCCCCCCNCC(O)(Cn1cncn1)c1ccc(F)cc1F (stereo unspecified) ?
Data returned: 33

* * *

Give measured hemolysis at 1 h, 0.975 ug/ml for each item. Keep answers brief.
testProtocol: Hemolytic activity in mouse RBC at […] ug/ml after 1 hr relative to control
Assay type: ADME, cell-based, Erythrocyte
conditionLabel: mouse red blood cells (erythrocytes), read-out: Activity

Data request: What value of measured hemolysis at 1 h, 0.975 ug/ml is listed for CCCCCCCCCCCCCCCCNCC(O)(Cn1cncn1)c1ccc(F)cc1F (stereo unspecified) ?
Data returned: 5%

Data request: What value of measured hemolysis at 1 h, 0.975 ug/ml is listed for CCCCCCCCCCNCC(O)(Cn1cncn1)c1ccc(F)cc1F (stereo unspecified) ?
Data returned: 0%

Data request: What value of measured hemolysis at 1 h, 0.975 ug/ml is listed for CCCCCCCCCCCCCCNCC(O)(Cn1cncn1)c1ccc(F)cc1F (stereo unspecified) ?
Data returned: 6%

Data request: What value of measured hemolysis at 1 h, 0.975 ug/ml is listed for C[C@@H](c1ncncc1F)[C@](O)(Cn1cncn1)c1ccc(F)cc1F [VORICONAZOLE] ?
Data returned: 10%

Data request: What value of measured hemolysis at 1 h, 0.975 ug/ml is listed for CCCCCCCCNCC(O)(Cn1cncn1)c1ccc(F)cc1F (stereo unspecified) ?
Data returned: 2%

Data request: What value of measured hemolysis at 1 h, 0.975 ug/ml is listed for CCCCCCCCCCCCNCC(O)(Cn1cncn1)c1ccc(F)cc1F (stereo unspecified) ?
Data returned: 2%

This collection of values is drawn from ChEMBL document CHEMBL4118101.
